biological target: mMC5R (Mus musculus, UniProt P41149); experiment: AlphaScreen cAMP agonist assay, HEK293 cells stably expressing mMC5R
Sequence (P41149 whole entry): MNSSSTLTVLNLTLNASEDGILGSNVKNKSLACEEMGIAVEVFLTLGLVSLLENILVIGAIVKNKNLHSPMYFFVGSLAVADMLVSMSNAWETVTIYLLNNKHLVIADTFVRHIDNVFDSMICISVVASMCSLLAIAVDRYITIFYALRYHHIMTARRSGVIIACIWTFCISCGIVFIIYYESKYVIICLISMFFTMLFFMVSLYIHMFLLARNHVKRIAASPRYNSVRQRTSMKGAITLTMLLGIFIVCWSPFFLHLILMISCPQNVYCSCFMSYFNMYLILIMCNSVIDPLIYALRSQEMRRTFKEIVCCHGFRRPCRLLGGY
// pEC50 lookup, one value per entry
// pEC50 here means minus log10 of the molar concentration (mol/L)

Solved entries:
{"columns": ["COMPOUND", "TEST_VALUE"],
 "data": [
  ["CCC[C@@H]1CN([C@@H](CC2CCCCC2)CN2CCC[C@H]2CN2C(=N)NC[C@H]2C(C)C)C(=N)N1CC1CCC(C(C)(C)C)CC1 (stereo partly drawn) [Compound 2718.051]", 4.96],
  ["CC(C)C[C@@H]1CNC(=N)N1C[C@H]1CCCN1C[C@H](Cc1ccccc1)N1C[C@@H]([C@H](C)O)N(CC2CCC(C(C)(C)C)CC2)C1=N (stereo partly drawn) [Compound 2718.038]", 5.85],
  ["CC(C)C[C@H]1CNC(=N)N1C[C@@H]1CCCN1C[C@@H](CC1CCCCC1)N1C[C@@H]([C@H](C)O)N(CC2CCC(C(C)(C)C)CC2)C1=N (stereo partly drawn) [Compound 2718.048]", 6.19]
]}

The reported pEC50 of the compound CC(C)C[C@@H]1CNC(=N)N1C[C@H]1CCCN1C[C@H](Cc1ccccc1)N1C[C@H]([C@@H](C)O)N(CC2CCC(C(C)(C)C)CC2)C1=N (stereo partly drawn) [Compound 2718.041] was 5.10

Data point: CC(C)CC1CNC(=N)N1CC1CCCN1CC(Cc1ccc(O)cc1)N1CC(C(C)O)N(CC2CCC(C(C)(C)C)CC2)C1=N (stereo not drawn) [Compound 2718.057] ; pEC50 = 5.22

pEC50 reported for this compound CC(C)C[C@H]1CNC(=N)N1C[C@H]1CCCN1C[C@H](Cc1ccccc1)N1C[C@H]([C@@H](C)O)N(CC2CCC(C(C)(C)C)CC2)C1=N (stereo partly drawn) [Compound 2718.034] : 5.52

The compound identified as CC(C)CC1CNC(=N)N1CC1CCCN1CC(Cc1ccccc1)N1CC(C(C)O)N(CC2CCC(C(C)(C)C)CC2)C1=N (stereo not drawn) [Compound 2718.001] registered its pEC50 at 6.59

pEC50 for CC(C)C[C@H]1CNC(=N)N1C[C@@H]1CCCN1C[C@@H](Cc1ccccc1)N1C[C@H]([C@@H](C)O)N(CC2CCC(C(C)(C)C)CC2)C1=N (stereo partly drawn) [Compound 2718.037] is 5.15

compound CCC[C@@H]1CN(CCN2CCC[C@H]2CN2C(=N)NC[C@H]2C(C)C)C(=N)N1CC1CCC(C(C)(C)C)CC1 (stereo partly drawn) [Compound 2718.028] , pEC50 observed: 4.72

Record summary for CC(C)C[C@H]1CNC(=N)N1C[C@H]1CCCN1C[C@@H](Cc1ccccc1)N1C[C@H]([C@@H](C)O)N(CC2CCC(C(C)(C)C)CC2)C1=N (stereo partly drawn) [Compound 2718.043] : reported pEC50 = 5.10

# pEC50 (compound: CC(C)C[C@H]1CNC(=N)N1C[C@H]1CCCN1C[C@@H](Cc1ccccc1)N1C[C@@H]([C@H](C)O)N(CC2CCC(C(C)(C)C)CC2)C1=N (stereo partly drawn) [Compound 2718.040] ) is 6.30

CC(C)C[C@@H]1CNC(=N)N1C[C@H]1CCCN1C[C@@H](CC1CCCCC1)N1C[C@@H]([C@H](C)O)N(CC2CCC(C(C)(C)C)CC2)C1=N (stereo partly drawn) [Compound 2718.047] has a reported pEC50 of 6.35
